# Study system: T1, CD25 (recombinant) (human, UniProt P01589 22-213, limits assumed)
# T1 construct: bought protein; also called IL2-R alpha; IL2-Rα
# T1 sequence (looked up): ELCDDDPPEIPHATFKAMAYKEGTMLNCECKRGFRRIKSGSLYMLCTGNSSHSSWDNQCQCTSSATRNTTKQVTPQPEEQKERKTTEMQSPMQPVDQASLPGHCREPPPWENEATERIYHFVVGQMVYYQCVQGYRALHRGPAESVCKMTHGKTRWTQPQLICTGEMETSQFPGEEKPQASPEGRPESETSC
# Procedure text: SPR (BIAcore)
Reported endpoint: pKd
One number for each entry, as −log10 of the molar value.

// query Request the reported pKd associated with daclizumab variant S79 (antibody, IgG1, name in Kabat numbering, V domains shown, IgG1; Kabat positions; also called E73K) VH: QVQLVQSGAEVKKPGSSVKVSCKASGYTFTSYRMHWVRQAPGQGLEWIGYINPSTGYTEYNQKFKDKATITADKSTNTAYMELSSLRSEDTAVYYCARGGGVFDYWGQGTLVTVSS VL: DIQMTQSPSTLSASVGDRVTITCSASSSISYMHWYQQKPGKAPKLLIYTTSNLASGVPARFSGSGSGTEFTLTISSLQPDDFATYYCHQRSTYPLTFGQGTKVEVK
// result 9.41
